Value source: patent US5250679A

Please provide measured IC50 for the entries that follow.
target: Human Vitronectin receptor (av b3) (Homo sapiens, UniProt P05106+P06756); construct: is purified from human placenta; from tissue; host or cells: human placenta; test: Human Vitronectin-Vitronectin Receptor (av b3) ELISA Assay (Vn/VnR); format: binding; settings: Example 30, G # table
Sequence (P06756 31-889 limits assumed): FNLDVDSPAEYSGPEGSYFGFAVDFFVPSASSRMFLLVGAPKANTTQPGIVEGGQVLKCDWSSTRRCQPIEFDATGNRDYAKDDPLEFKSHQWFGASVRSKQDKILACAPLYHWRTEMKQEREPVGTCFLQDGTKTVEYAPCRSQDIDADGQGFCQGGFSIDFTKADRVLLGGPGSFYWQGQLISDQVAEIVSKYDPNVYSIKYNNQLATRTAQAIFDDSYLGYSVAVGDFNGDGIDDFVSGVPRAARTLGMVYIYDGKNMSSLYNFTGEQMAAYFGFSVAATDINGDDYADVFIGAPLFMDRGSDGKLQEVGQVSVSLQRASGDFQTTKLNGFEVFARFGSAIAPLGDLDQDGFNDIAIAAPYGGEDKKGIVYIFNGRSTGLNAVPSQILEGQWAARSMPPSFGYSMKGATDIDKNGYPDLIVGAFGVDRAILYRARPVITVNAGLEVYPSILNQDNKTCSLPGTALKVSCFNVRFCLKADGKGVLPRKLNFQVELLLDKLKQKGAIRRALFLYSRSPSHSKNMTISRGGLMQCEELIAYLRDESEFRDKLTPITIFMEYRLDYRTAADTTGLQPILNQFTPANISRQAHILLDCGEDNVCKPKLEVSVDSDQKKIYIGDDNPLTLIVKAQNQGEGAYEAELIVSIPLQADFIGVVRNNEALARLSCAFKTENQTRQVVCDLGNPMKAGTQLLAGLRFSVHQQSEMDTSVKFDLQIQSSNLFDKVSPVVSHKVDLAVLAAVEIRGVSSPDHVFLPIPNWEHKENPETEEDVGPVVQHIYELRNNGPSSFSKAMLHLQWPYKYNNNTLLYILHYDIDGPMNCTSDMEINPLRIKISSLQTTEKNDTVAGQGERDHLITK
Sequence (P06756 891-1048 partner limits assumed): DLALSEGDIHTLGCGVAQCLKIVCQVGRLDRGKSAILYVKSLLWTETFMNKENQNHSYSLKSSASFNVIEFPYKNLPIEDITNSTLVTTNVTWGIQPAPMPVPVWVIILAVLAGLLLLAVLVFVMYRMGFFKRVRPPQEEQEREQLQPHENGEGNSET
Sequence (P05106 27-788): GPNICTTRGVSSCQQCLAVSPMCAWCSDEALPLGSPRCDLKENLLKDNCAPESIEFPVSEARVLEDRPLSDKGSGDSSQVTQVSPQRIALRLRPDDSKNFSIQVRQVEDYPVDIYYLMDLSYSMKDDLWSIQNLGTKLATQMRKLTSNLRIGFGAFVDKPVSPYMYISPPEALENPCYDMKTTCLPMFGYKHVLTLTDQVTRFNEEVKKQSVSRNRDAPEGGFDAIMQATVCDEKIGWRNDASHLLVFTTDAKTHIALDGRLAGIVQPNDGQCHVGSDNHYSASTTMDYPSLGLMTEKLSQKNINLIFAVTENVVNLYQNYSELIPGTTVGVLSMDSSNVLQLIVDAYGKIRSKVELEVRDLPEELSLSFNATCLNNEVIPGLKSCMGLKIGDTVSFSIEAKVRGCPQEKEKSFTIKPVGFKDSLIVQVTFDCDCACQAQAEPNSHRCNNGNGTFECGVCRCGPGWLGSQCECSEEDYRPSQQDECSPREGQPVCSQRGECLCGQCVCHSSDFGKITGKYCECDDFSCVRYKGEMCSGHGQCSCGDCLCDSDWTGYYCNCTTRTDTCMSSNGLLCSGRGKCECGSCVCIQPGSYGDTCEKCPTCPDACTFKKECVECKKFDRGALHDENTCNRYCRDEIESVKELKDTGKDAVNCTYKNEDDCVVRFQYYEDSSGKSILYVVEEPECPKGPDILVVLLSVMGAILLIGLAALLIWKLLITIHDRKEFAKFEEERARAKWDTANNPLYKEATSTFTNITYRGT

Here is how some compounds turned out for IC50.
{"structureSmiles": "N=C(N)NCCCCCc1ccc2c(c1)C(=O)N(CCC(=O)O)CC(=O)N2C(c1ccccc1)c1ccccc1", "experimentalResult": "> 10 µM"}
{"structureSmiles": "NCCCCC#Cc1ccc2c(c1)C(=O)N(CCC(=O)O)CC(=O)N2Cc1ccc(Cl)cc1", "experimentalResult": "> 10 µM"}
{"structureSmiles": "N=C(N)NCCCCCCc1ccc2c(c1)C(=O)N(CCC(=O)O)CC(=O)N2Cc1cccc(NC(=O)CCNC(=N)N)c1", "experimentalResult": "> 10 µM"}
{"structureSmiles": "N=C(N)NCCCCCc1ccc2c(c1)C(=O)N(CCC(=O)O)CC(=O)N2Cc1ccc(Cl)cc1", "experimentalResult": "> 10 µM"}
{"structureSmiles": "CN1C(=O)CN(CCC(=O)O)C(=O)c2cc(CCCCNC(=N)N)ccc21", "experimentalResult": "> 10 µM"}
{"structureSmiles": "CN1C(=O)CN(CCC(=O)O)C(=O)c2cc(C#Cc3ccc(CNC(=N)N)cc3)ccc21", "experimentalResult": "> 10 µM"}

Hi team, please reply with IC50 for each item in this list.
1. NCCCCCCc1ccc2c(c1)C(=O)N(CCC(=O)O)CC(=O)N2Cc1cccc(NC(=O)CCN)c1
2. CN1C(=O)CN(CCC(=O)O)C(=O)c2cc(CCCCCNC(=N)N)ccc21

1: > 10 µM; 2: > 10 µM
